system: C. elegans VP596 Pgst-4::GFP/RFP ratio, acrylamide, 24 h; assay: inhibition of acrylamide-induced Pgst-4::GFP reporter, dose response, SKN-1 inhibitor project, whole organism, GFP/RFP fluorescence ratio, set 2, strain VP596 (AID 651563);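 note: red signal is driven by the dop-3 promoter and serves as the normalizer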
Active and inactive are the calls of the source.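 Rule for the calls: active = compounds whose IC50 is 20 micromolar or lower, counted as confirmed SKN-1 reporter blockers; inactive = the rest.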
assay_readout: IC50

Some solved cases for reference:
1) O=C1/C(=C/c2cccs2)CCc2ccccc21 : 34.3 µM (inactive)
2) Brc1ccc(-c2nc(-c3ccccn3)no2)o1 : 35.8 µM (inactive)
3) O=C(Nc1ccc(OC(F)F)c(Cl)c1)c1ccccn1 : 5.09 µM
4) c1ccc(Nc2nc(-c3cccs3)cs2)nc1 : 21.7 µM (inactive)
5) O=[N+]([O-])c1ccc(NCc2ccc(Cl)cc2)nc1 : 18.1 µM
6) CCN(CC)Cc1ccc(NC(=O)c2sc3cc(Cl)ccc3c2Cl)cc1 : 13.8 µM

Query string: GET /values?readout=IC50&item= Clc1ccc(-c2nc3cc(CN4CCCCC4)ccc3o2)cc1
Result string: 87.7 µM (inactive)

Query string: Query Clc1ccc(N2CCN(c3ccnc(Cl)n3)CC2)cc1 next
Result string: 17.7 µM

Query string: Query O=[N+]([O-])c1ccc2nc(-c3ccccc3)oc2c1 next
Result string: 3.84 µM
